# TARGET DESC: NLRP3 inflammasome (Homo sapiens (Human))
# Sequence (Q96P20 whole entry): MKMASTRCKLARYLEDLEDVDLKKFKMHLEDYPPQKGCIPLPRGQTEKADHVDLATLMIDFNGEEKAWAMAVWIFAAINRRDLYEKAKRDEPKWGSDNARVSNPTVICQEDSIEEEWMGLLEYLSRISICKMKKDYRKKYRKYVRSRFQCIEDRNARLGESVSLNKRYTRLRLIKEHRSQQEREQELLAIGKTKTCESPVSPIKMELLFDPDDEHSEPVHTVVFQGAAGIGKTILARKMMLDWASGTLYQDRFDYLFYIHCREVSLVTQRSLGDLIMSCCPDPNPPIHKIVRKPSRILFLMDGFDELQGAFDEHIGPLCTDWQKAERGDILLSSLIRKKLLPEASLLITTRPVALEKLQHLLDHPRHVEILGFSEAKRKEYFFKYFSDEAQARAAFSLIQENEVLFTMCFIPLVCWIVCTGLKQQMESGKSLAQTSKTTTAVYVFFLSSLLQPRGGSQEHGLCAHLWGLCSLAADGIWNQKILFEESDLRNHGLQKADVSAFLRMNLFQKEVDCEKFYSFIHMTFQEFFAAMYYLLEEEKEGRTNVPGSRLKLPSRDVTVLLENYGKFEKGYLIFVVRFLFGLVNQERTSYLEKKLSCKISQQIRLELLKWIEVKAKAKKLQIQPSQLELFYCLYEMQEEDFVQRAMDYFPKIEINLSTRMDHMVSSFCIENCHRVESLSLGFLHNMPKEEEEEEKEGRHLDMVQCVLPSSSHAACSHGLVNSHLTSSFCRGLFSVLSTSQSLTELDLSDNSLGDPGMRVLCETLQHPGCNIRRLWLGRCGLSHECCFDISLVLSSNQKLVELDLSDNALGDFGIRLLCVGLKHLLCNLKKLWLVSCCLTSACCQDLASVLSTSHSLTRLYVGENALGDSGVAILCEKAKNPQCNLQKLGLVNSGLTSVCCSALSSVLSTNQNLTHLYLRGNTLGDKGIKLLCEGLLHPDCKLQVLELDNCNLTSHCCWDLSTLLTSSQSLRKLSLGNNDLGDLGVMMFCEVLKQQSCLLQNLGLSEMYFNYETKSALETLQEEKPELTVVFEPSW
# ASSAY NAME: Evaluation of NLRP3 inflammasome inhibitory activity (inhibition of IL-1β production in THP1-Null cells, LPS/Nigericin)
Entries and their measured pIC50 follow.
Convention used: pIC50 is expressed as -log10 of the molar concentration.

Known results for compounds:
- COMPOUND: "CC(=O)N(C)C1CCCN(S(=O)(=O)NC(=O)c2coc(Nc3cc(C(F)(F)F)ccc3C)n2)CC1 (racemic) [Example 2-232]"
  TARGET DESC: "NLRP3 inflammasome (Homo sapiens (Human))"
  pIC50: 7.52
- COMPOUND: "COC(=O)CC1COCCN1S(=O)(=O)NC(=O)c1coc(Nc2c3c(c(Cl)c4c2CCC4)CCC3)n1 (racemic) [Example 73]"
  TARGET DESC: "NLRP3 inflammasome (Homo sapiens (Human))"
  pIC50: 6.80
- COMPOUND: "CCOC1COCCN(S(=O)(=O)NC(=O)c2coc(Nc3cc(C(F)(F)F)ccc3C)n2)C1 (racemic) [Example 2-318]"
  TARGET DESC: "NLRP3 inflammasome (Homo sapiens (Human))"
  pIC50: 7.11
- COMPOUND: "Cc1ccc(C2CC2)cc1Nc1nc(C(=O)NS(=O)(=O)N2CCC(O)C2)co1 (racemic) [Example 2-002]"
  TARGET DESC: "NLRP3 inflammasome (Homo sapiens (Human))"
  pIC50: 6.80
- COMPOUND: "Cc1ccc(C(F)(F)F)cc1Nc1nc(C(=O)NS(=O)(=O)N2CCCC(n3cccn3)CC2)co1 (racemic) [Example 2-273]"
  TARGET DESC: "NLRP3 inflammasome (Homo sapiens (Human))"
  pIC50: 7.62
- COMPOUND: "CCS(=O)(=O)N1CCCN(S(=O)(=O)NC(=O)c2coc(Nc3cc(C(F)(F)F)ccc3C)n2)CC1C (racemic) [Example 2-242]"
  TARGET DESC: "NLRP3 inflammasome (Homo sapiens (Human))"
  pIC50: 7.35

# context switch: different compound, same pIC50
Query :: Requested read-out: pIC50. Entry: Cc1ccc(C(F)(F)F)cc1Nc1nc(C(=O)NS(=O)(=O)N2CCOCC2c2ccccc2)co1 (racemic) [Example 2-346]
Result :: 6.54

###

# TARGET DESC: NLRP3 inflammasome (Homo sapiens (Human))
# ASSAY NAME: Evaluation of NLRP3 inflammasome inhibitory activity (inhibition of IL-1β production in THP1-Null cells, LPS/Nigericin)
# EXPERIMENTAL PARAMETERS: inhibition of IL-1β production in THP1-Null cells
Reported values of pIC50 for individual entries
Reminder that pIC50 is minus the log10 of a molar concentration.

- COMPOUND: "CCCS(=O)(=O)N1CCCN(S(=O)(=O)NC(=O)c2coc(Nc3cc(Cl)ccc3C)n2)CC1"
  pIC50: 7.14
- COMPOUND: "CCC(=O)N1CCCN(S(=O)(=O)NC(=O)c2coc(Nc3cc(C(F)(F)F)ccc3C)n2)CC1"
  pIC50: 7.30
- COMPOUND: "Cc1ccc(Br)cc1Nc1nc(C(=O)NS(=O)(=O)N2CCCOCC2)co1"
  pIC50: 7.13
- COMPOUND: "CCCS(=O)(=O)N1CCCN(S(=O)(=O)NC(=O)c2coc(Nc3cn(C(C)C)nc3C(C)C)n2)CC1"
  pIC50: 6.77
- COMPOUND: "Cc1ccc(C(F)F)cc1Nc1nc(C(=O)NS(=O)(=O)N(C)C)co1"
  pIC50: 6.92

Query :: Consider the compound CCCCS(=O)(=O)N1CCCN(S(=O)(=O)NC(=O)c2coc(Nc3nn(C(C)C)cc3C)n2)CC1 and give its measured pIC50.
Result :: 7.51

Query :: Bench note: what pIC50 did CC(C)c1nn(C(C)C)cc1Nc1nc(C(=O)NS(=O)(=O)N2CCCOCC2)co1 show?
Result :: 6.24

Query :: Consider the compound shown here: Cc1ccc(C2(C#N)CC2)cc1Nc1nc(C(=O)NS(=O)(=O)N(C)C)co1 What is its recorded pIC50?
Result :: 6.57
